# credit: patent US20190248902A1

STUDY_SYSTEM: T1, human ASGR-1 mutant construct H203 (human, UniProt P07306 1-291)
T1 construct: Arg/Glu scanning: non-arginine residues were changed to arginine; Transiently expressed on CHO-S cells
T1 sequence: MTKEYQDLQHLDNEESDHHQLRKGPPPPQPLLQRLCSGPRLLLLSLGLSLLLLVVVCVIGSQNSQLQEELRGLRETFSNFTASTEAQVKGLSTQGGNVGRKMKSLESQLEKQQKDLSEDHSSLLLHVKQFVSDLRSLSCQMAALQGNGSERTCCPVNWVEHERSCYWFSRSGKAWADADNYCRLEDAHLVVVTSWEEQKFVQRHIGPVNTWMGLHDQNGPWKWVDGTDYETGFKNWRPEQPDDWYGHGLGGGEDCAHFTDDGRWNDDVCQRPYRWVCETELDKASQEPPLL
ASSAY_EXPLANATION: FACS ratio: H203 normalized value / wt normalized value
// values below are reported Normalization to wt ASGR1 Binding
Lab note: write the figure by itself, no unit.

- BINDER: "50G9 (antibody, V domains shown, mAb) VH: QVQLVESGGGVVQPGRSLRLSCAASGFIFSSYGMHWVRQAPGKGLEWVAVISQDGIIRYYADSVKGRFTISRDNSKNTLYLQMNSLRAEDTAVYYCARDVKQWLVRTYGMDVWGQGTTVTVSS VL: SYELTQPPSVSVSPGQTASITCSGDKLGDKYACWYQQKPGQSPVLVIYQDSKRPSGIPERFSGSNSGNTATLTISGTQARDEAEYYCQARNSRRGVFGGGTRLTVL"
  Normalization to wt ASGR1 Binding: 11.4

Now for the binder whose Normalization to wt ASGR1 Binding we want.
input: Need Normalization to wt ASGR1 Binding, item 190F8 (antibody, V domains shown, mAb) VH: QVQLVESGGGVVQPGRSLRLSCAASGFTFSTYGMHWVRQAPGKGLEWVAVIWYDGSNKNYADSVKGRFTISRDNSKNTLYLQMNSLRAEDTAVYYCARDQGVGYDGLDVWGQGTTVTVSS VL: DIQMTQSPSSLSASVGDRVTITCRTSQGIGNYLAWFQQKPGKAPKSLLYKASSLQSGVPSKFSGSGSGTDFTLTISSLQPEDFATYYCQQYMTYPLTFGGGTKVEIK
output: 1.11
